Source: patent US20220073536A1

In this section we review reported IC50 values for a set of compounds.
test system: cultured human mast cells (CHMC); assay: CHMC low cell density ionomycin activation: tryptase assay; format: cell-based; settings: Homo sapiens, Mast cell, low cell density CHMC, tryptase readout, 3 pt, read-out: LD Tryptase, CHMC, Iono, 3 pt

[
  {
    "compound": "COc1ccc(Nc2ncc(F)c(Nc3cccc(NC4=NCCN4)c3)n2)cc1F [Compound 1094]",
    "target-or-system": "cultured human mast cells (CHMC)",
    "IC50": "> 10 µM"
  },
  {
    "compound": "Fc1cnc(Nc2cccc(N3CCOCC3)c2)nc1Nc1cccc(NC2=NCCN2)c1 [Compound 1097]",
    "target-or-system": "cultured human mast cells (CHMC)",
    "IC50": "> 10 µM"
  },
  {
    "compound": "Cc1cc(Nc2ncc(F)c(N(C)c3ccc4c(c3)N(C)C(=O)C(C)(C)O4)n2)cc(Cl)c1OC1CCCC1 [Compound 1032]",
    "target-or-system": "cultured human mast cells (CHMC)",
    "IC50": "> 10 µM"
  },
  {
    "compound": "CN1C(=O)C(C)(C)Oc2ccc(N(C)c3nc(Nc4ccc(-c5cnco5)cc4)ncc3F)cc21 [Compound 1026]",
    "target-or-system": "cultured human mast cells (CHMC)",
    "IC50": "> 10 µM"
  },
  {
    "compound": "COc1c(C)cc(Nc2ncc(F)c(N(C)c3ccc4c(c3)N(C)C(=O)C(C)(C)O4)n2)cc1C [Compound 1031]",
    "target-or-system": "cultured human mast cells (CHMC)",
    "IC50": "> 10 µM"
  },
  {
    "compound": "Cc1cc(C)cc(Nc2ncc(F)c(NC3CCC3)n2)c1 [Compound 1087]",
    "target-or-system": "cultured human mast cells (CHMC)",
    "IC50": "> 10 µM"
  },
  {
    "compound": "CC1(C)Oc2ccc(Nc3nc(Nc4ccc(-c5cnco5)cc4)ncc3F)cc2NC1=O [Compound 1020]",
    "target-or-system": "cultured human mast cells (CHMC)",
    "IC50": "> 10 µM"
  },
  {
    "compound": "CN(c1ccc2c(c1)NC(=O)C(C)(C)O2)c1nc(Nc2cccc(-c3cnco3)c2)ncc1F [Compound 1023]",
    "target-or-system": "cultured human mast cells (CHMC)",
    "IC50": "> 10 µM"
  }
]

====

In this section we review reported pIC50 values for a set of compounds.
test system: cultured human mast cells (CHMC); test: CHMC low cell density IgE activation: tryptase assay; assay type: cell-based; details: low cell density, IgE activation, 3 pt; read-out: LD Tryptase, CHMC, IgE, 3 pt
pIC50: −log10 of the molar value.
endpoint-name: pIC50

[
  {
    "smiles-notation": "CN1C(=O)C(C)(C)Oc2ccc(Nc3nc(Cl)ncc3F)nc21",
    "endpoint-name": "pIC50",
    "recorded-result": "< 5.00"
  },
  {
    "smiles-notation": "CNC(=O)COc1cccc(Nc2ncc(F)c(Nc3ccc(OC)c(Cl)n3)n2)c1",
    "endpoint-name": "pIC50",
    "recorded-result": "> 5.00"
  },
  {
    "smiles-notation": "CCOC(=O)C(C)(C)Oc1ccc(N(C)c2nc(Cl)ncc2F)cc1Cl",
    "endpoint-name": "pIC50",
    "recorded-result": "< 5.00"
  },
  {
    "smiles-notation": "COc1ccc(Nc2ncc(F)c(Nc3ccc(OCCO)nc3)n2)cc1Cl",
    "endpoint-name": "pIC50",
    "recorded-result": "> 5.00"
  },
  {
    "smiles-notation": "CNS(=O)(=O)c1ccc(Nc2ncc(F)c(Nc3cccc(O)c3)n2)cc1OC",
    "endpoint-name": "pIC50",
    "recorded-result": "> 5.00"
  },
  {
    "smiles-notation": "Cn1c(CS(C)(=O)=O)nc2cc(Nc3ncc(F)c(Nc4ccc5c(n4)NC(=O)C(C)(C)O5)n3)ccc21",
    "endpoint-name": "pIC50",
    "recorded-result": "> 5.00"
  },
  {
    "smiles-notation": "CC(C)(C)c1nnc(-c2cccc(Nc3ncc(F)c(Nc4cccc(O)c4)n3)c2)o1",
    "endpoint-name": "pIC50",
    "recorded-result": "> 5.00"
  },
  {
    "smiles-notation": "COc1ccc(Nc2nc(Nc3cccc(-c4nnc(C(C)(C)C)o4)c3)ncc2F)cc1OC",
    "endpoint-name": "pIC50",
    "recorded-result": "> 5.00"
  },
  {
    "smiles-notation": "CNC(=O)COc1cccc(Nc2ncc(F)c(Nc3ccc(OC)c(N)n3)n2)c1",
    "endpoint-name": "pIC50",
    "recorded-result": "> 5.00"
  },
  {
    "smiles-notation": "CNS(=O)(=O)c1ccc(Nc2ncc(F)c(Nc3ccc4c(c3)NC(=O)C(C)(C)O4)n2)cc1OC",
    "endpoint-name": "pIC50",
    "recorded-result": "> 5.00"
  },
  {
    "smiles-notation": "CNC(=O)c1cc(Nc2ncc(F)c(N(C)c3ccc4c(c3)OCCO4)n2)ccc1Cl",
    "endpoint-name": "pIC50",
    "recorded-result": "> 5.00"
  },
  {
    "smiles-notation": "Cn1c(=O)[nH]c2cc(Nc3ncc(F)c(Nc4ccc5c(n4)NC(=O)C(C)(C)O5)n3)ccc21",
    "endpoint-name": "pIC50",
    "recorded-result": "> 5.00"
  },
  {
    "smiles-notation": "CC1(C)Oc2ccc(Nc3nc(Nc4ccc5c(c4)nc(C(F)(F)F)n5CCCO)ncc3F)nc2NC1=O",
    "endpoint-name": "pIC50",
    "recorded-result": "> 5.00"
  },
  {
    "smiles-notation": "COc1cc(Nc2ncc(F)c(Nc3ccc(OCCO)nc3)n2)cc(OC)c1",
    "endpoint-name": "pIC50",
    "recorded-result": "> 5.00"
  },
  {
    "smiles-notation": "CCN(CC)Cc1nc2cc(Nc3ncc(F)c(Nc4ccc5c(n4)NC(=O)C(C)(C)O5)n3)ccc2n1C",
    "endpoint-name": "pIC50",
    "recorded-result": "> 5.00"
  },
  {
    "smiles-notation": "CC(C)(C)c1nnc(-c2cccc(Nc3ncc(F)c(Nc4ccc5c(c4)OCCO5)n3)c2)o1",
    "endpoint-name": "pIC50",
    "recorded-result": "> 5.00"
  }
]

====

test system: cultured human mast cells (CHMC); test: CHMC low cell density IgE activation: tryptase assay; type: cell-based; conditions: Homo sapiens, Mast cell, low cell density CHMC, IgE activation, tryptase release, 8 pt; read-out: LD Tryptase, CHMC, IgE, 8 pt
pIC50: −log10 of the molar value.
Documented pIC50 across a set of compounds

[
  {
    "compound": "COCCn1ncc2cc(Nc3ncc(F)c(Nc4ccc5c(c4)NC(=O)C(C)(C)O5)n3)ccc21 [Compound 773]",
    "target-or-system": "cultured human mast cells (CHMC)",
    "pIC50": "> 5.00"
  },
  {
    "compound": "COc1ccc(Nc2nc(Nc3ccc4c(cnn4CCCN)c3)ncc2F)cc1Cl [Compound 823]",
    "target-or-system": "cultured human mast cells (CHMC)",
    "pIC50": "> 5.00"
  },
  {
    "compound": "COc1ccc(Nc2nc(Nc3ccc4nc(C)[nH]c4c3)ncc2F)cc1Cl [Compound 808]",
    "target-or-system": "cultured human mast cells (CHMC)",
    "pIC50": "> 5.00"
  }
]

====

molecular target: Syk kinase (Homo sapiens, UniProt P43405); construct: purchased Upstate, Lake Placid N.Y; test: Syk kinase biochemical fluorescence polarization assay; conditions: isolated Syk kinase, 11 pt, read-out: fp_syk, 11 pt
pIC50: −log10 of the molar value.
endpoint-name: pIC50

[
  {
    "smiles-notation": "C[C@@H]1Oc2ccc(Nc3nc(Nc4ccc5c(c4)c(N)nn5C)ncc3F)cc2NC1=O",
    "endpoint-name": "pIC50",
    "recorded-result": "> 5.00"
  },
  {
    "smiles-notation": "CCN(CC)CCNC(=O)c1ccc(Nc2ncc(F)c(Nc3ccc(OCc4nc(C)no4)cc3)n2)cc1",
    "endpoint-name": "pIC50",
    "recorded-result": "> 5.00"
  },
  {
    "smiles-notation": "COc1ccc(Nc2nc(Nc3ccc4nc(C)[nH]c4c3)ncc2F)cc1Cl",
    "endpoint-name": "pIC50",
    "recorded-result": "> 5.00"
  },
  {
    "smiles-notation": "COc1ccc(N(C)c2nc(Cl)ncc2F)cc1OC",
    "endpoint-name": "pIC50",
    "recorded-result": "< 5.00"
  }
]
